# System: HCT-116 colon
# Method Description: NCI-60 one-dose screen, 48 h
# Assay Setup: 10 µM
This is part of a sample that, as a whole, favours compounds with a hit. Of some 83,000 tested, about 20% had one in any assay. The source made the active and inactive calls. The calls were made as follows: active = growth percent below 10; inactive = the rest.
Labels: label 1 = active, label 0 = inactive

compound=CC(=O)Nc1ccc2c(c1)C(=O)c1cccc(C(=O)O)c1-2 measurement_target="HCT-116 colon" category="label 0"
compound=COc1cc(C(=O)n2nc(-c3cc(OC)c(OC)c(OC)c3)nc2N)cc(OC)c1OC measurement_target="HCT-116 colon" category="label 0"
compound="C=CCN(CC=C)C(=O)[C@H](CC)[C@@H]1CC[C@@H](C)[C@@H]([C@H](C)[C@@H](O)[C@@H](C)C(=O)[C@H](CC)C2O[C@]3(C=C[C@@H](O)[C@]4(CC[C@@](C)([C@H]5CC[C@](O)(CC)[C@H](C)O5)O4)O3)[C@H](C)C[C@@H]2C)O1 (stereo partly drawn)" measurement_target="HCT-116 colon" category="label 1"
compound=CCOC(=O)c1cc(C(=O)c2ccc(OC)c(OC)c2)n2c1ccc1ccc3cccnc3c12 measurement_target="HCT-116 colon" category="label 0"
compound=CS(=O)(=O)c1nccc(-c2c(-c3cccc(OCCN4CCOCC4)c3)nc3sccn23)n1 measurement_target="HCT-116 colon" category="label 0"
compound=COc1ccc2nc3cc(Cl)ccc3c(Nc3cc(CN4CCCC4)c(O)c(CN4CCCC4)c3)c2n1 measurement_target="HCT-116 colon" category="label 1"
compound=Cc1ccc(NCCNCC(C)(C)O)c2c(=O)c3ccc(Cl)cc3sc12 measurement_target="HCT-116 colon" category="label 1"
compound=CNC(=O)c1cn(C2CC2)c2cc(N3CCN(C(=O)c4cc(OC)c(OC)c(OC)c4)CC3)c(F)cc2c1=O measurement_target="HCT-116 colon" category="label 0"
compound=N#Cc1ccc(C(=O)CSc2nccc(Nc3ccc(C(=O)O)cc3)n2)cc1 measurement_target="HCT-116 colon" category="label 0"
compound="CCC(c1ccc(OC)cc1)C(CC)c1ccc(O)c(CN2CCN(C)CC2)c1 (stereo not drawn)" measurement_target="HCT-116 colon" category="label 0"
compound=O=C(NCCCNS(=O)(=O)c1ccc(Cl)cc1)Nc1ccc(-n2cc(-c3ccncc3)c(-c3ccc(Cl)c(O)c3)n2)cc1 measurement_target="HCT-116 colon" category="label 0"
compound="C[C@@H](O)[C@H]1C(=O)N2C(C(=O)O)=C(SC3CN[C@H](C(=O)N(C)C)C3)[C@H](C)[C@H]12 (stereo partly drawn)" measurement_target="HCT-116 colon" category="label 0"
compound="COc1ccc(/C=C2\\CCCC3=C2NC(N)=NC3c2ccc(OC)cc2)cc1 (stereo not drawn)" measurement_target="HCT-116 colon" category="label 0"
compound="CCOC(=O)C1C(C(=O)OCC)C2C(=O)C3C(C(=O)OCC)C(C(=O)OCC)C3C(=O)C12 (stereo not drawn)" measurement_target="HCT-116 colon" category="label 0"
compound=CN1C(C(=O)Nc2ccccn2)=C(O)c2sc(Cl)cc2S1(=O)=O measurement_target="HCT-116 colon" category="label 0"
compound=O=C(/C=C/C=C/c1c(C2CC2)nc2ccccc2c1-c1ccc(F)cc1)c1cccs1 measurement_target="HCT-116 colon" category="label 1"
compound=Cc1ccc(-n2c(C)nn3c(=O)c4c5c(sc4nc23)CN(C)CC5)cc1 measurement_target="HCT-116 colon" category="label 0"
compound=CCOC(=O)c1cc(C(=O)c2ccc(OC)c(OC)c2)n2ccncc12 measurement_target="HCT-116 colon" category="label 0"
